- Tested on: αSMA
- PROTOCOL TEXT: αSMA intensity (fibroblast activation) in IPF patient-derived lung fibroblasts + TGFβ
- Assay type: cell-based, human
- CONDITIONS: Homo sapiens, SMA; patient sample IPF-4; 1 μM + TGFβ, treated for 72 hours; read-out: αSMA intensity (% of DMSO control) IPF-4
Counter-ions that a name gives are not always drawn.
Everything with activity at 1 µM lower than 40% is no; everything else, including exactly 40%, is yes.

Check out these entries, answers already filled in.
NCCc1ccc(O)cc1 [4-Hydroxyphenethylamine•HCl, 4-Hydroxyphenethylamine] :: yes
Oc1cc2c(cc1O)[C@@H](c1ccccc1)CNCC2 :: no
CCCN1C[C@H](CSC)C[C@@H]2c3cccc4[nH]cc(c34)C[C@H]21 [Pergolide mesylate, Pergolide] :: yes
NCCc1ccc(O)c(O)c1 [Dopamine•HCl, Dopamine] :: no
CN1Cc2ccccc2C2c3cccc4[nH]cc(c34)CC21 (stereo not drawn) :: no
C=CCN1C[C@H](C(=O)N(CCCN(C)C)C(=O)NCC)C[C@@H]2c3cccc4[nH]cc(c34)C[C@H]21 :: yes

Now for another entry.
Q) I'd appreciate it if you could say whether Oc1cc2c(cc1O)[C@H]1c3ccccc3CN[C@@H]1CC2 (racemic) [Dihydrexidine, dihydrexidine] has activity at 1 µM at least equal to 40%.
A) no
